- target_under_test: human CA-XII (Homo sapiens, UniProt O43570)
- Construct: purchased Creative BioMart CA12-261H
- Sequence (O43570 25-354): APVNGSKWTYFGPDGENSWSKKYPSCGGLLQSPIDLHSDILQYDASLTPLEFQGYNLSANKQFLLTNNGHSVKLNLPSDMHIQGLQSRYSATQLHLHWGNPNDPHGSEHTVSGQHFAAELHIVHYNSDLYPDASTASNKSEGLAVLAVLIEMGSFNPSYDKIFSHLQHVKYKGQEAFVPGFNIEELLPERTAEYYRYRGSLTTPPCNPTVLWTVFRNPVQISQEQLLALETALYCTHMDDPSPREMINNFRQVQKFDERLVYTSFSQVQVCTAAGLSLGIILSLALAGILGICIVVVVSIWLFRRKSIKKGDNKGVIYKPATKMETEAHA
- measurement_description: Surface Plasmon Resonance (SPR) binding kinetics to recombinant human CA-XII (Biacore 8K, single-cycle kinetics, 1:1 binding model)
- settings: Chelated Metal: Lu-175, 25° C., pH 7.4, read-out: CAXII KD
pKd: −log10 of the molar value.
I'd be grateful if you could share measured pKd for these entries.

Exercise: Could you share which pKd value was measured for NS(=O)(=O)c1nnc(NC(=O)C23CC(c4cn(CCNC(=O)[C@@H]5CN(C(=O)CN6CCN(CC(=O)O)CCN(CC(=O)O)CCN(CC(=O)O)CC6)CCN5C(=O)C[C@H](NC(=O)C[C@H](NC(=O)c5ccc(C6(C(F)(F)F)CC6)cn5)C(=O)O)C(=O)O)nn4)(C2)C3)s1.[Lu+3] ?
Solution: 8.00 to 8.60

Consider the record given below.
Exercise: Fill in: pKd of NS(=O)(=O)c1nnc(NC(=O)C23CC(c4cn(CCNC(=O)[C@@H]5CN(C(=O)CN6CCN(CC(=O)O)CCN(CC(=O)O)CCN(CC(=O)O)CC6)CCN5C(=O)CNC(=O)C5(C(=O)O)CCN(C(=O)Cc6n[nH]c7ccc(F)cc67)CC5)nn4)(C2)C3)s1.[Lu+3] is ___
Solution: < 8.00
